PROTOCOL TEXT: Toxicity on mice after oral administration, single dosage (Table 1')
Format: in vivo
TEST PARAMETERS: mouse, in vivo, po, male mice, p.o., 168 hours, equivalent amounts of Indomethacine; read-out: LD50 as equivalent amount of Indomethacine

{"columns": ["CHEMICAL STRUCTURE", "LD50 at 168 h (mg/kg)"],
 "data": [
  ["COc1ccc2c(c1)c(CC(=O)OCC(Cl)(Cl)Cl)c(C)n2C(=O)c1ccc(Cl)cc1", 1570]
]}

====

PROTOCOL TEXT: Toxicity on mice after oral administration, single dosage (Table 1')
Assay type: in vivo
TEST PARAMETERS: mouse, in vivo, po; male mice, p.o., 168 hours; read-out: LD50
The reader will find reported LD50 at 168 h values listed item by item below.

{"columns": ["MOLECULE", "LD50 at 168 h"],
 "data": [
  ["COc1ccc2c(c1)c(CC(=O)OCC(Cl)(Cl)Cl)c(C)n2C(=O)c1ccc(Cl)cc1 [Example 5]", "2150 mg/kg"],
  ["COc1ccc2c(c1)c(CC(=O)O)c(C)n2C(=O)c1ccc(Cl)cc1 [Indomethacine, reference compound]", "140 mg/kg"]
]}
